These data points were gathered from PubChem BioAssay (NCI).

Give growth inhibition for every item shown.
measurement-notes: NCI Yeast Anticancer Drug Screen. Data for the mlh1 rad18 strain (AID 175)
study-conditions: S. cerevisiae mlh1 rad18 strain growth inhibition; at 50.0 µM; hits give high values
The panel holds about 79,000 compounds, 15% with a hit somewhere; the sample as a whole holds those more often.
Numbers only, in %.

Examples with their reported growth inhibition follow.
{"compound": "C=C(CCl)CCl", "growth inhibition (%)": 36.5}
{"compound": "COc1ccc(N/N=C2\\CCOc3ccc(C)cc3C2=O)cc1", "growth inhibition (%)": 46.7}
{"compound": "CS(=O)(=O)c1cc(=O)[nH]c(=O)[nH]1", "growth inhibition (%)": 7.45}
{"compound": "Cc1[nH]c2ccccc2c1C(=O)Cc1ccc(Cl)cc1Cl", "growth inhibition (%)": 33.4}
{"compound": "c1ccc(-c2c(-c3cccs3)[nH]c(-c3cccs3)c2-c2ccccn2)nc1", "growth inhibition (%)": -57}

Please go through the list and note growth inhibition for each compound.
1. COC(=O)C(C(=O)C(=O)NC1=C(Cl)C(=O)c2ccccc2C1=O)c1csc(-n2nc(-c3ccccc3)cc2-c2ccccc2)n1 (stereo not given)
2. Clc1nc(Cl)c2ncnc(Cl)c2n1
3. CSC1=NC=C(C#N)C2=NC(c3ccccc3)NN12 (stereo not given)
4. COc1cc(O)c(C(C)=O)c2c1C=CC(C)(C)O2
5. c1ccc(-c2nc3cc4ccccc4cc3nc2-c2ccccc2)cc1

Result:
[-5.4, -5.7, 7, -14.7, -18.6]
